Listed here are binders together with their documented Phage binding ELISA signal, Anti-PSMA Fab.
target: T1, PSMA Fab (biotinylated (site not stated)); experiment: clonal phage ELISA on biotinylated PSMA Fab captured on neutravidin, anti-M13 HRP detection;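 further: crude clonal phage supernatants added to wells pretreated with PSMA antigen in blocking buffer or with blocking buffer only, then briefly incubated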
T1 construct: Biotinylated PSMA Fab captured on neutravidin coated plates in the phage ELISA; also called Anti-PSMA Fab; 006 PSMA Fab
Write no unit; give the number alone.

Solved cases below.
# BINDER, NUMERIC_RESULT
data = [
    ("QDLKCVPSWMCSGF [Phage-3599]", 1.59),
    ("EIPWCVPSWMCNYF [Phage-3597]", 1.59),
    ("LERLCRPAWMCDGF [Phage-3596]", 1.59),
    ("VMHRCEPSWMCWGF [Phage-3601]", 1.58),
    ("HEPVCKPSWMCTGL [Phage-3602]", 1.58),
]

Enquiry: Could you please provide reported Phage binding ELISA signal, Anti-PSMA Fab for EGLRCVPAWMCAGF [Phage-3603] ? Thanks!
Return: 1.58

Enquiry: Give a short answer stating reported Phage binding ELISA signal, Anti-PSMA Fab for VEKMCKPAWMCNVF [Phage-3592] .
Return: 1.6

Enquiry: Indicate its recorded Phage binding ELISA signal, Anti-PSMA Fab; the binder in question is EELMCRPVWMCLGF [Phage-3591]
Return: 1.6
